assay: NCI Yeast Anticancer Drug Screen. Data for the bub3 strain (AID 167); settings: S. cerevisiae bub3 mutant strain, at 50.0 µM, hits give high values
This is part of a sample that, as a whole, favours compounds with a hit. Of some 79,000 tested, about 15% had one in any assay. Calls of active or inactive are those of the source. No stated cut-off is given here; in the data, active means growth inhibition above about 70%; inactive means the rest.
Please respond with reported growth inhibition for every item in the list.

Which growth inhibition is reported for this molecule? CC(C)=CCc1c(O)ccc2ccc(=O)oc12 7.3% (inactive)

Look at this molecule and give its reported growth inhibition. CC(C)=CCCC(C)C=O (stereo unspecified) -20.1% (inactive)

If you can, please state the reported growth inhibition value of Cn1ccnc1Sc1ccccn1 . 7.3% (inactive)

# get_value(readout='growth inhibition', item= O=C(c1ccccc1)c1oc(CO)cc(=O)c1O ) -3.9% (inactive)

Need growth inhibition, item COC(=O)C1OCOC2C(CO)OCOC12 (stereo unspecified) 2.8% (inactive)

For the molecule shown here, CN(c1ccccc1)C1C(=O)N(c2ccccc2)C1/C=C/c1ccccc1 (stereo unspecified) , give the reported growth inhibition. 11.9% (inactive)

Entry CC(=O)OCCCC(=O)Nc1cc([N+](=O)[O-])ccc1OCc1ccccc1 has what growth inhibition? 5.7% (inactive)

Would you mind telling me what growth inhibition value was observed for O=C(NC(CSC(=O)c1ccccc1)C(=O)O)c1ccccc1 (stereo unspecified) ? 6.8% (inactive)

Sample CC1=NC2(CCCCC2)N(Cl)C(=O)C1SC#N (stereo unspecified) — what was its growth inhibition? -13.8% (inactive)

Which growth inhibition value belongs to CC(=O)Oc1ccc(O)c(C(=O)O)c1 ? 0.2% (inactive)

Please report the recorded growth inhibition for C=C(C)COC(OCC(=C)C)C(C)C . 22.2% (inactive)
